The reader will find reported inhibition values listed item by item below.
Tested on: Saccharomyces cerevisiae
Assay: Inhibition of yeast alpha-glucosidase at 1.5 uM using p-nitrophenyl-alpha-glucopyranoside as substrate measured after 30 mins relative to control
Respond with the bare value in %.

C=CCc1cc(O)c(O)c(-c2cc(CC=C)cc(OC)c2O)c1; 98
CC(=O)OCCc1ccc(O)c(-c2cc(CCOC(C)=O)ccc2O)c1; 98.9

Moving on to the next compound.
[ask] Suppose we examine the compound C=CCc1ccc(O)c(-c2cc(CC=C)cc(O)c2O)c1 ; what inhibition value has been reported?
[reply] 97.6

Ref: ChEMBL document CHEMBL4118055
